Assay: qHTS Assay for Lipid Storage Modulators (AID 1519); note: % is set by controls: 0 for no effect and ±100 for the full control effect
Details: Drosophila S3 cells, BODIPY lipid droplet/cell ratio, laser cytometry; at 25.7 µM (top of the series); cells loaded with oleic acid
Results filed as inconclusive are left out.
Listed here: items and their measured activity change, negative = inhibition.
Express it in %; write the number only.

Using the record for C/C(=C(/CCO)SSC[C@@H]1CCCO1)N(C=O)Cc1cnc(C)nc1N , report its activity change, negative = inhibition.
-0.641

Using the record for CC[C@H](CO)NCCN[C@@H](CC)CO , report its activity change, negative = inhibition.
-0.966

Using the record for CN(C)CCO[C@@H](c1ccc(Cl)cc1)c1ccccn1 , report its activity change, negative = inhibition.
-4.98

Using the record for CO[C@H]1C=CO[C@]2(C)Oc3c(C)c(O)c4c(O)c(c5c(c4c3C2=O)NC2(CCN(CC(C)C)CC2)N=5)=NC(=O)C(C)=CC=C[C@@H](C)[C@@H](O)[C@@H](C)[C@@H](O)[C@@H](C)[C@@H](OC(C)=O)[C@@H]1C , report its activity change, negative = inhibition.
-0.285

Using the record for CC[C@](C)(CN(C)C)OC(=O)c1ccccc1 , report its activity change, negative = inhibition.
-5.12

Using the record for CCC(=O)OCC(=O)[C@@]1(OC(=O)CC)[C@H](C)C[C@@H]2[C@@H]3[C@H]([C@@H](O)C[C@@]21C)[C@]1(C)C=CC(=O)C=C1C[C@@H]3Cl , report its activity change, negative = inhibition.
-4.84

Using the record for CCOC(=O)[C@H](CCc1ccccc1)N[C@@H](C)C(=O)N1[C@H](C(=O)O)C[C@H]2CCC[C@@H]21 , report its activity change, negative = inhibition.
-3.49

Using the record for C=CCOc1ccccc1OC[C@H](O)CNC(C)C , report its activity change, negative = inhibition.
2.07

Using the record for C[C@H](NCCC(c1ccccc1)c1ccccc1)c1ccccc1 , report its activity change, negative = inhibition.
-3.52
